- study.target: nociceptin receptor ORL1 (Homo sapiens, UniProt P41146)
- Construct: expressed in transfected cells
- Sequence (P41146 whole entry): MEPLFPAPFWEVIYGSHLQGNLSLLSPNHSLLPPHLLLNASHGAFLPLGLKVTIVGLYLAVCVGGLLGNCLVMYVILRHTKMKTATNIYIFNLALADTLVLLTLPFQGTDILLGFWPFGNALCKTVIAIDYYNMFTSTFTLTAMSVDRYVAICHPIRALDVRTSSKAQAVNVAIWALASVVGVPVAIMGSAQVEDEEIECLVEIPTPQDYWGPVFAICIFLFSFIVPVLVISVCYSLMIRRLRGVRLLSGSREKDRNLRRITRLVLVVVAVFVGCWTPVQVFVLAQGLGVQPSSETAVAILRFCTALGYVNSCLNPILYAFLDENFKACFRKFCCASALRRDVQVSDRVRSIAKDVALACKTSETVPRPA
- method.description: Antagonism against nociceptin-elicited G protein activation (GTPγ[35S] binding, CHO/ORL1 membranes)
- Format: biochemical
- protocol.conditions: 50 nM nociceptin, 200 pM GTPγ[35S], CHO/ORL1 membrane, 25° C. for 150 minutes
pIC50: −log10 of the molar value.
quantity.measured: pIC50

> print(dat)
                                   molecule                              study.target  quantitative.result
1  COC(=O)N[C@H]1CC[C@](C)(C(=O)c2nc3cc(Cl)c(N4CCN(CCO)CC4C)cc3[nH]2)CC1 (single isomer, unassigned) [Example 6(2S*)]  nociceptin receptor ORL1 (Homo sapiens, UniProt P41146)                 9.04

I = COC(=O)N[C@H]1CC[C@](C)(C(=O)c2nc3cc(C)c(N4CCN(CCO)CC4C)cc3[nH]2)CC1 (single isomer, unassigned) [Example 11(2S*)]
II = CCN1CCN(c2cc3[nH]c(C(=O)[C@]4(C)CC[C@@H](O)CC4)nc3cc2Cl)C(C)C1 (single isomer, unassigned) [Example 24(2S*)]
Looking at recorded values for pIC50, does I or II come in lower? Returns: label corresponding to the selected item. II

---

- study.target: nociceptin receptor ORL1 (Homo sapiens)
- Construct: expressed in transfected cells
- method.description: Nociceptin receptor binding inhibition assay ([125I]Tyr14-Nociceptin, SPA, CHO/ORL1 membranes)
- protocol.conditions: 50 pM [125I]Tyr14-Nociceptin, CHO/ORL1 membrane, 37° C. for 60 minutes; read-out: IC50 value, nociceptin receptor binding inhibition action
- Protocol: Pharmacological Test Example 1 (Nociceptin Receptor Binding Inhibition Assay) cDNA which codes a human nociceptin receptor gene was cloned into an expression vector pCR3 (Invitrogen) to prepare pCR3/ORL1. Next, pCR3/ORL1 was transfected in CHO cells using a transfectam (Nippongene) to obtain a stable expression strain (CHO/ORL1 cells) having resistance against 1 mg/ml G418. Membrane fractions were prepared from this stable expression strain to carry out a receptor binding assay. […]
quantity.measured: IC50 (nM)

> print(dat)
                                   molecule                             study.target  quantity.measured  unit.symbol  quantitative.result
1  CCN1CCN(c2cc3[nH]c(C(=O)[C@]4(C)CC[C@@](C)(O)CC4)nc3cc2Cl)CC1  nociceptin receptor ORL1 (Homo sapiens)               IC50           nM                  1.4

I = COC(=O)N[C@H]1CC[C@](C)(C(=O)c2nc3cc(C)c(N4CCN(CCO)CC4C)cc3[nH]2)CC1 (single isomer, unassigned)
II = COC[C@]1(C(=O)c2nc3cc(C)c(N4CCN5CCC[C@H]5C4)cc3[nH]2)CC[C@](C)(O)CC1
Field: entry with larger IC50 (options I / II ). Returns: label corresponding to the selected item. I
